Entries and their pIC50
tested on: RS4; 11 with G101V mutation; test: In vitro anti-proliferation assay (ATPlite luminescence) in BCL-2-dependent ALL cell line RS4;11 with G101V mutation; format: cell-based; conditions: Homo sapiens, RS4-11, 72 h; read-out: RS411-G101V IC50
The value called pIC50 is obtained by taking minus log10 of the concentration in mol/L.

- COc1cc(CN2CCN(C3CC4(CCN(c5ccc(C(=O)NS(=O)(=O)c6cc7c(c([N+](=O)[O-])c6)N[C@H](C6CCOCC6)CO7)c(N6c7cc8cc[nH]c8nc7O[C@H]7COCC[C@@H]76)c5)CC4)C3)[C@H](c3ccccc3OC(C)C)C2)cnc1OC: 8.40

// next item, pIC50 requested
-- ask Entry CC(C)Oc1ccccc1[C@@H]1CN(S(=O)(=O)c2ccc(F)c(F)c2)CCN1C1CC2(CCN(c3ccc(C(=O)NS(=O)(=O)c4cc5c(c([N+](=O)[O-])c4)N[C@H](C4CCOCC4)CO5)c(N4c5cc6cc[nH]c6nc5O[C@H]5COCC[C@@H]54)c3)CC2)C1 : reported pIC50 = ?
-- reply 6.54
